# study-target: T1, mouse LTBP3-proTGFβ1 complex (mouse, UniProt Q61810 41-1245; P04202 30-390, limits assumed)
# T1 construct: Exemplary entries; also called Mo LTBP3-proTGFβ1; Murine LTBP3 proTGFb1
# T1 sequence (Q61810 other isoform, or with tags, fused parts or gaps limits assumed, chain 1 of 2): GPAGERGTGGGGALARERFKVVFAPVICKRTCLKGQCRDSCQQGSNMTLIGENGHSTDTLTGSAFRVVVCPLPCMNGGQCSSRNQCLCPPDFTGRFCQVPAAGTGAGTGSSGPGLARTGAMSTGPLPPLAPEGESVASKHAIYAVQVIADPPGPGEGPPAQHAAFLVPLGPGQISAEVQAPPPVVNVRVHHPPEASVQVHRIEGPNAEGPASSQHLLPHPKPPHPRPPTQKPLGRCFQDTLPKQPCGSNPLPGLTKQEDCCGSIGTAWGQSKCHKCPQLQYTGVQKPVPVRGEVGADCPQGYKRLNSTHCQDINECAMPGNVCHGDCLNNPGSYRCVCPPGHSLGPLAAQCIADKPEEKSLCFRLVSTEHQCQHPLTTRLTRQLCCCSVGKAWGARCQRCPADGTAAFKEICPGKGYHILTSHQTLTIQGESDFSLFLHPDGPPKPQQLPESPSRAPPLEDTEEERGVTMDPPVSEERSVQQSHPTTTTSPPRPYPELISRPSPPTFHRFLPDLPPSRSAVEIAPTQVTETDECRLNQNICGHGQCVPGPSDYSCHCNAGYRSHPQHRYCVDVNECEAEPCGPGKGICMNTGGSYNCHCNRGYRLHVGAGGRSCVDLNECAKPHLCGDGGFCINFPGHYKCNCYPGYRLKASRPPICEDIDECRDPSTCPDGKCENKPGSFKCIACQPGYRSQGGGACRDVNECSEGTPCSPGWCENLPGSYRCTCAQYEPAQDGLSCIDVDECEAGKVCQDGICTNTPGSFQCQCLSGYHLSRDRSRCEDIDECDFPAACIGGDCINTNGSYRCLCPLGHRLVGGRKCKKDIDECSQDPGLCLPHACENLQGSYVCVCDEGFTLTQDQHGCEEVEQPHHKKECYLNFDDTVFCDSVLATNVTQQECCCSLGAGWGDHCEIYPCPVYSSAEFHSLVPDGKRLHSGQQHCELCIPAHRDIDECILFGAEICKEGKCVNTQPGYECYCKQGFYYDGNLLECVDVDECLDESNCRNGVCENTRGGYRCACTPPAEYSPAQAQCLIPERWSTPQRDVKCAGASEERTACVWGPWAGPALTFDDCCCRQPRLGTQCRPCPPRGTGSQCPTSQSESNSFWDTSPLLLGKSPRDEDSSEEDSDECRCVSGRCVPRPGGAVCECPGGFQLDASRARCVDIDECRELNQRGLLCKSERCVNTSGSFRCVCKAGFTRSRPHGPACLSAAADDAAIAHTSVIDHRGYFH
# T1 sequence (P04202 30-390 limits assumed, chain 2 of 2): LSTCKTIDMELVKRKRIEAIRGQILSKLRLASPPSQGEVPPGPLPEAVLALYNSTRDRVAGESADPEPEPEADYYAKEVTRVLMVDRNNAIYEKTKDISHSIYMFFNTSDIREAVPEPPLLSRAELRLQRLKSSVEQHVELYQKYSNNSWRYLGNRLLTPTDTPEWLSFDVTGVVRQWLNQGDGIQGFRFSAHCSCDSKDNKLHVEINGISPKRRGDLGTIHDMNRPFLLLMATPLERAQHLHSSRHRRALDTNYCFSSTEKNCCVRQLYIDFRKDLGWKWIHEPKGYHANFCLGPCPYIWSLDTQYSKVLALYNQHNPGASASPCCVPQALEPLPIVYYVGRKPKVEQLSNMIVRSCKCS
# test-details: Octet BLI, IgG captured
Please respond with reported pKd for every item in the list.
Answers are plain numbers, as −log10 of the molar value.

binder: SR-AB37 (antibody, IgG1, V domains shown, Cycle 3, lineage SR-AB22) VH: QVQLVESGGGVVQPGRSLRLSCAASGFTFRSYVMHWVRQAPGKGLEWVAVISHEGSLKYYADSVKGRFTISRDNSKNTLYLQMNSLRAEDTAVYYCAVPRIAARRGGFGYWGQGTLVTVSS VL: NFMLTQPHSVSESPGKTVTISCTRSSGLIDDNYVQWYQQRPGSSPTTVIYEDNQRPSGVPDRFSGSIDSSSNSASLTISGLKTEDEADYYCQSYDSDLQRVVFGGGTKLTVL
pKd: 9.49

Now take the following binder into account.
Query string: Suppose we examine the binder SR-AB62 (antibody, IgG1, V domains shown, Cycle 3, lineage SR-AB24) VH: QLQLQESGPGLAKPSETLSLTCTVSGGSIRSSSYYWGWIRQPPGKGLEWIGSISYSATTYYNPSLKSRVTISVDTSKNQFSLKLSSVTAADTAVYYCASDPSYDSAAGMDVWGQGTTVTVSS VL: DIQMTQSPSSLSASVGDRVTITCRASKVISSYLNWYQQKPGKAPKLLIYYASSLQSGVPSRFSGSGSGTDFTLTISSLQPEDFATYYCQQSNDWPFTFGGGTKVEIK ; what pKd value has been reported?
Result string: 8.47

Ref: patent US20220064276A1
